System: HT29 colon
assay.method.text: NCI-60 one-dose screen, 48 h
applied.conditions: 10 µM unless noted
Compounds without any hit were thinned out: in the full panel of roughly 83,000, 20% have a hit. Active and inactive are the calls of the source. How the source made its calls: active means growth percent below 10; inactive means the rest.
The categories you may choose from are active, inactive

{"columns": ["compound", "assigned.class"],
 "data": [
  ["COc1ccc(NCc2cn(-c3ccc(C(=O)O)cc3)nc2-c2ccc(C(=O)O)cc2)cc1C(F)(F)F", "inactive"],
  ["Cn1cc(-c2noc(-c3cn(C)c4ncccc34)n2)c2cc(Cl)ccc21", "inactive"],
  ["O=C1CC(c2ccccc2)Cc2nc3ccc(Cl)cc3cc21 (stereo unspecified)", "active"],
  ["Cc1cc(C)c(O)c(CNCCCNCc2cc(C)cc(C)c2O)c1", "inactive"],
  ["CN(C)Cc1ccc[nH]1", "inactive"],
  ["COC(=O)[C@]12CCC(C)(C)C[C@H]1C1=CC[C@@H]3[C@@]4(C)C/C(=C/c5cccnc5)C(=O)C(C)(C)[C@@H]4CC[C@@]3(C)[C@]1(C)CC2", "active"]
]}

Task: Would you mind telling me which call this test gave C[N+](C)(C)c1ncnc2[n-]cnc12 ?
Result: inactive

###

Tested on: SN12C renal
assay.method.text: NCI-60 one-dose screen, 48 h
applied.conditions: 10 µM unless noted
Compounds without any hit were thinned out: in the full panel of roughly 83,000, 20% have a hit. Active and inactive are the calls of the source. The calls were made as follows: active = growth percent below 10; inactive = the rest.
The categories you may choose from are active, inactive

Here are 2 molecules together with their reported answers.
{"columns": ["line.notation", "assigned.class"],
 "data": [
  ["CCN(CC)CCCCCCNc1cccc2cc(Br)cnc12", "inactive"],
  ["O=[N+]([O-])c1cccc(/C=C/c2ccc3ccccc3n2)c1", "inactive"]
]}

Task: Would you mind telling me which call this test gave O=C(N/N=C/c1ccc([N+](=O)[O-])cc1)c1ccc(Br)o1 ?
Result: inactive

Task: Would you mind telling me which call this test gave COc1ccc(-c2cc(-c3ccccc3)nc(SCCCCCC(=O)NO)n2)cc1 ?
Result: inactive

Task: Would you mind telling me which call this test gave O=C(Nc1ccc(F)cc1)c1ccccc1 ?
Result: inactive

Task: Would you mind telling me which call this test gave CCOC(=O)c1c[nH]c2cc(OCC3CC3)c(OCC3CC3)cc2c1=O ?
Result: inactive

Task: Would you mind telling me which call this test gave O=C(NCCCCCCCNC(=O)OCc1ccc2c(Cl)cc(Cl)c(O)c2n1)OCc1ccc2c(Cl)cc(Cl)c(O)c2n1 ?
Result: active

Task: Would you mind telling me which call this test gave C1=C[C@H]2O[C@@H]1c1ccc3[nH]ccc3c12 ?
Result: inactive

###

Tested on: HCT-15 colon
assay.method.text: NCI-60 one-dose screen, 48 h (100 = growth as untreated, 0 = no growth, -100 = all killed)
applied.conditions: 10 µM unless noted
Compounds without any hit were thinned out: in the full panel of roughly 83,000, 20% have a hit.
readout.kind: growth (%)
// units = %; emit number, no label

// below: answered compounds
{"columns": ["compound", "tgt", "growth / %"],
 "data": [
  ["COc1ccc(/C=C/C=C\\C(=O)c2ccc(-n3ccnc3)cc2)cc1", "HCT-15 colon", 91.3],
  ["CCOc1cccc2c(NC(C)CCCN(CC)CC)c(C)cnc12 (centres undefined)", "HCT-15 colon", 99.1],
  ["CN(C)Cc1ccc[nH]1", "HCT-15 colon", 102]
]}

Task: I'd like to know its growth. The compound in question is NC(=O)CC1C=CCC1 (centres undefined)
Result: 99.5

###

System: SK-MEL-28 melanoma
assay.method.text: NCI-60 one-dose screen, 48 h (100 = growth as untreated, 0 = no growth, -100 = all killed)
applied.conditions: 10 µM unless noted
Procedure: Growth inhibition of the SK-MEL-28 human tumor cell line is measured as a screen for anti-cancer activity. Cells are grown in 96 well plates and exposed to the test compound for 48 hours. Compounds are tested at a single concentration, which is 10^-5 M for most compounds. The reported endpoint is percent growth (GI% or GIPRCNT), where numbers from 0 - 100% represent growth inhibition, and numbers from -100% - 0 represent cell death. For example, a value of 40 represents 60% growth inhibition. […]
This is part of a sample that, as a whole, favours compounds with a hit. Of some 83,000 tested, about 20% had one in any assay.
// reported growth for each item listed
// units = %; emit number, no label

Task: I'd like to know its growth. The compound in question is CCC(Br)(CC)C(=O)c1ccc(OCC(=O)O)c(Cl)c1Cl
Result: 111

Task: I'd like to know its growth. The compound in question is CCCCN(CCCC)CC(O)c1ccc(OCc2ccccc2)c2ccccc12 (stereo not given)
Result: 109

Task: I'd like to know its growth. The compound in question is c1nc(N2CCOCC2)c2[nH]ccc2n1
Result: 106

Task: I'd like to know its growth. The compound in question is CSc1nc2sc3cc(Cl)c(Cl)cc3n2c(=N)c1C#N
Result: 108

Task: I'd like to know its growth. The compound in question is C[C@]12CCc3c(ccc4cc(O)ccc34)[C@@H]1CC[C@H]2O
Result: 99.3

###

Tested on: NCI-H460 lung
assay.method.text: NCI-60 one-dose screen, 48 h
applied.conditions: 10 µM unless noted
Procedure: Growth inhibition of the NCI-H460 human Non-Small Cell Lung tumor cell line is measured as a screen for anti-cancer activity. Cells are grown in 96 well plates and exposed to the test compound for 48 hours. Compounds are tested at a single concentration, which is 10^-5 M for most compounds. The reported endpoint is percent growth (GI% or GIPRCNT), where numbers from 0 - 100% represent growth inhibition, and numbers from -100% - 0 represent cell death. […]
Compounds without any hit were thinned out: in the full panel of roughly 83,000, 20% have a hit. Calls of active or inactive are those of the source. How the source made its calls: active means growth percent below 10; inactive means the rest.
The categories you may choose from are 1 (yes) for active, 0 (no) for inactive

Here are 6 compounds together with their reported answers.
{"columns": ["compound", "assigned.class"],
 "data": [
  ["CSc1nc2sc3cc(Cl)c(Cl)cc3n2c(=N)c1C#N", "0 (no)"],
  ["c1coc2occoc=2o1", "0 (no)"],
  ["O=C1CC(C(F)(F)F)Cc2nc3ccc(Br)cc3cc21 (centres undefined)", "0 (no)"],
  ["C=C(C)[C@@H]1CC[C@]2(C(=O)NCCNCCNCCN)CC[C@]3(C)[C@H](CC[C@@H]4[C@@]5(C)CCC(=O)C(C)(C)[C@@H]5CC[C@]43C)[C@@H]12", "1 (yes)"],
  ["C=C(C)[C@@H]1CC[C@]2(C(=O)OC)CC[C@]3(C)[C@H](CC[C@@H]4[C@@](C)(CCc5nn[nH]n5)[C@H](C(=C)C)CC[C@]43C)[C@@H]12", "1 (yes)"],
  ["CC1(C)CC[C@]23CC[C@]4(C)[C@H](CC[C@@H]5[C@@]6(C)C/C(=C/c7ccncc7)C(=O)C(C)(C)[C@@H]6CC[C@]54C)[C@H]2[C@H]1OC3=O", "0 (no)"]
]}

Task: Would you mind telling me which call this test gave COc1ccc2c(c1)c(-c1noc(-c3cn(C)c4ncc(F)cc34)n1)cn2C ?
Result: 0 (no)

Task: Would you mind telling me which call this test gave O=C(N/N=C/c1c(Cl)cccc1Cl)c1cccc(Nc2ccnc(C(F)(F)F)c2)c1 ?
Result: 0 (no)

Task: Would you mind telling me which call this test gave Nc1nc(Nc2ccccc2)c2ncn(Cc3ccc4c(c3)OCO4)c2n1 ?
Result: 0 (no)

###

// reported growth for each item listed
System: RPMI-8226 leukemia
assay.method.text: NCI-60 one-dose screen, 48 h (100 = growth as untreated, 0 = no growth, -100 = all killed)
applied.conditions: 10 µM unless noted
Protocol: Growth inhibition of the RPMI-8226 human tumor cell line is measured as a screen for anti-cancer activity. Cells are grown in 96 well plates and exposed to the test compound for 48 hours. Compounds are tested at a single concentration, which is 10^-5 M for most compounds. The reported endpoint is percent growth (GI% or GIPRCNT), where numbers from 0 - 100% represent growth inhibition, and numbers from -100% - 0 represent cell death. For example, a value of 40 represents 60% growth inhibition. […]
About 83,000 compounds went through this panel and 20% of them were active in at least one assay; those are over-represented in the sample as a whole. Active and inactive are the calls of the source. How the source made its calls: active means growth percent below 10; inactive means the rest.

// below: answered compounds
{"columns": ["compound", "growth"],
 "data": [
  ["COc1ccc(-c2cc(-c3ccc(Cl)cc3)nc(NCCCCNc3ccnc4cc(Cl)ccc34)n2)cc1", "23.8% (inactive)"],
  ["CC(C)C1=NOC(=O)C1=Cc1cn(-c2cccnc2)nc1-c1ccccc1", "-16.6% (active)"],
  ["CCCC(NC(=O)OCc1ccccc1)C(=O)O (stereo not drawn)", "68.7% (inactive)"],
  ["CCN(CC)c1ccc(/C=C/C=C2\\NC(=O)NC2=O)cc1", "41% (inactive)"],
  ["O=S(=O)(NCCNc1nccc(-c2c(-c3cccc(F)c3)nc3occn23)n1)c1ccc(C(F)(F)F)cc1", "75.5% (inactive)"],
  ["CCN(CC)c1ccc2cc(NC(=O)OCCNC(=O)CCNC(=O)[C@H](CC(C)C)NC(=O)C(C)(C)NC(=O)C(C)(C)NC(=O)[C@H](CC(C)C)NC(=O)CCNC(=O)C(C)(C)NC(=O)[C@H](CC(C)C)NC(=O)CCNC(=O)[C@@](C)(CC)NC(=O)[C@H](C)NC(=O)CCNC(=O)C(C)(C)NC(=O)[C@H](C)NC(=O)[C@@H]3CCCN3C(=O)[C@@](C)(CC)NC(=O)[C@H](Cc3ccccc3)NC(=O)C3CCCN3C(=O)C(C)(C)NC(=O)C3CCCN3C(=O)C(C)(C)NC(C)=O)c(=O)oc2c1 (stereo partly drawn)", "-60.4% (active)"],
  ["O=c1c2c3c(sc2n2cnnc2n1Cc1ccccc1)CCCC3", "72.8% (inactive)"],
  ["NNC(=O)c1ccc(C(=O)NN)cc1", "104% (inactive)"]
]}

Task: I'd like to know its growth. The compound in question is CNc1cc(C(=O)O)nc(NC)n1
Result: 103% (inactive)

Task: I'd like to know its growth. The compound in question is CC(C)C1=NOC(=O)C1=Cc1cn(-c2ccco2)nc1-c1ccccc1
Result: 6.57% (active)
